# system_name: CD28 (human) (UniProt P10747)
# procedure_details: flow cytometry, Jurkat cells (CD28); vs WT CD80 ECD-Fc (Abcam)
measured_parameter: Fold change to WT CD80 (fold)
Quick reminder: number only, in fold, skip the unit.

These recorded examples may help you get a feel for the data.
binder	unit_label	Fold change to WT CD80
variant CD80 IgV-Fc E35D/D46V/M47V/V68M/L85Q (Fc fusion) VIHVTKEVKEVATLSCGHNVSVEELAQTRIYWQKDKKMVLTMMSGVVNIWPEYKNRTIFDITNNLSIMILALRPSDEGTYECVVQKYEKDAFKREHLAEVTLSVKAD	fold	0.5
variant CD80 IgV-Fc E35D/M47V/V68M/L85Q/K89N (Fc fusion) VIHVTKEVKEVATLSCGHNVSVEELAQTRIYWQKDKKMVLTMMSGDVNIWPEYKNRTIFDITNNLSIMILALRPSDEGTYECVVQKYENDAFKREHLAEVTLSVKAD	fold	0.3

Record variant CD80 IgV-Fc E35D/V68M/L85Q (Fc fusion) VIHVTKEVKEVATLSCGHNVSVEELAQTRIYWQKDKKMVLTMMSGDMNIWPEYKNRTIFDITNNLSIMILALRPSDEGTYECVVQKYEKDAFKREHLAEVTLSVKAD , field Fold change to WT CD80: 0.1

Reported Fold change to WT CD80 of variant CD80 IgV-Fc E35D/K89N (Fc fusion) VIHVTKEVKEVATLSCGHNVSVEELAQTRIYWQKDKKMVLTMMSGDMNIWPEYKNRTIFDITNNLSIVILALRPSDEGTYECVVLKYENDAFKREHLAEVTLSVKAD : 0.3
